FYI, the data here is from patent US20140079706A1.

The reader will find reported % inhibition (of survival) = (100% - % survival), cynomolgous monocytes, 5 µg/ml antibody values listed item by item below.
# target entity: CSF-1R on cynomolgous monocytes (cynomolgous)
# protocol summary: cell-based or functional assay
Give just the number in %; leave the unit off.

binder	unit spec	readout number
Mab 2F11 (antibody, V domains shown, Murine monoclonal antibody from hybridoma; also called muMab 2F11) VH: QVQLKESGPGLVAPSQSLSITCTVSGFSLTTYDISWIRQSPGKGLEWLGVIWTDGGTNYNSPFMSRLSIRKDNSKSQVFLKMNRLQTDDTAIYYCVRDQRLYFDVWGAGTTVTVSS VL: NIVMTQSPKSMSMSVGERVTLNCKASEDVNTYVSWYQQQPEQSPKLLIYGASNRYTGVPDRFTGGGSTTDFTLTISSVQAEDLADYFCGQSFSYPTFGTGTKLEIK	%	96
Mab 2H7 (antibody, V domains shown, Murine monoclonal antibody) VH: QVQLKESGPGLVAPSKSLSITCTVSGSSLDSFDISWIRQPPGKGLEWLGVIWTGGGTNYNSGFMSRLRISKDNSKSQVFLKMSSLQSDDTAIYYCVRDPRLYFDVWGAGTTVTVSS VL: NIVMTQSPKSMSMSVGERVTLSCKASEDVVTYVSWYQQKPEQSPKLLIYGASNRYTGVPDRFTGSGSATDFTLTISSIQAEDLADYYCGQTFSYPTFGTGTKLEIK	%	92
Mab 2E10 (antibody, V domains shown, Murine monoclonal antibody) VH: QVQLKESGPGLVAPSKSLSITCTVSGSSLDSFDISWIRQSPGKGLEWLGVIWTGGGTNYNSGFMSRLRITKDNSKSQVLLKMNSLQSDDTAIYYCVRDPRLYFDVWGAGTTVTVSS VL: NIVMTQSPKSMSMSVGERVTLSCKASEDVVTYVSWYQQKPDQSPKLLIYGASNRYTGVPDRFTGSGSATDFTLTISSVQAEDLADYYCGQTFSYPTFGTGTKLEIK	%	83

Attention now shifts to the item below.
*Q* # lookup: % inhibition (of survival) = (100% - % survival), cynomolgous monocytes, 5 µg/ml antibody of Mab 1G10 (antibody, V domains shown, Murine monoclonal antibody) VH: RVQLKESGPGLVAPSQSLSITCTVSGFSLTSYDISWIRQSPGKGLEWLGVIWSGGGTNYNSPFMSRLRISKDDSRSQVFLKVNRLQTDDTAIYYCVRDLRLYFDVWGAGTTVTVSS VL: KIVMTQSPKSMSVSVGERVSLSCKASEDVGTYVSWYQQKPEQSPKLLIYGSSNRYTGVPDRFTGSGSATDFTLTISSVQAEDLADYSCGQSFTYPTFGTGTKLEIK
*A* 98
